This collection of values is drawn from patent US8895733B2.

Target: Nav 1.7 (Homo sapiens, UniProt Q15858)
Construct: expressed in transfected cells
Sequence (Q15858 whole entry): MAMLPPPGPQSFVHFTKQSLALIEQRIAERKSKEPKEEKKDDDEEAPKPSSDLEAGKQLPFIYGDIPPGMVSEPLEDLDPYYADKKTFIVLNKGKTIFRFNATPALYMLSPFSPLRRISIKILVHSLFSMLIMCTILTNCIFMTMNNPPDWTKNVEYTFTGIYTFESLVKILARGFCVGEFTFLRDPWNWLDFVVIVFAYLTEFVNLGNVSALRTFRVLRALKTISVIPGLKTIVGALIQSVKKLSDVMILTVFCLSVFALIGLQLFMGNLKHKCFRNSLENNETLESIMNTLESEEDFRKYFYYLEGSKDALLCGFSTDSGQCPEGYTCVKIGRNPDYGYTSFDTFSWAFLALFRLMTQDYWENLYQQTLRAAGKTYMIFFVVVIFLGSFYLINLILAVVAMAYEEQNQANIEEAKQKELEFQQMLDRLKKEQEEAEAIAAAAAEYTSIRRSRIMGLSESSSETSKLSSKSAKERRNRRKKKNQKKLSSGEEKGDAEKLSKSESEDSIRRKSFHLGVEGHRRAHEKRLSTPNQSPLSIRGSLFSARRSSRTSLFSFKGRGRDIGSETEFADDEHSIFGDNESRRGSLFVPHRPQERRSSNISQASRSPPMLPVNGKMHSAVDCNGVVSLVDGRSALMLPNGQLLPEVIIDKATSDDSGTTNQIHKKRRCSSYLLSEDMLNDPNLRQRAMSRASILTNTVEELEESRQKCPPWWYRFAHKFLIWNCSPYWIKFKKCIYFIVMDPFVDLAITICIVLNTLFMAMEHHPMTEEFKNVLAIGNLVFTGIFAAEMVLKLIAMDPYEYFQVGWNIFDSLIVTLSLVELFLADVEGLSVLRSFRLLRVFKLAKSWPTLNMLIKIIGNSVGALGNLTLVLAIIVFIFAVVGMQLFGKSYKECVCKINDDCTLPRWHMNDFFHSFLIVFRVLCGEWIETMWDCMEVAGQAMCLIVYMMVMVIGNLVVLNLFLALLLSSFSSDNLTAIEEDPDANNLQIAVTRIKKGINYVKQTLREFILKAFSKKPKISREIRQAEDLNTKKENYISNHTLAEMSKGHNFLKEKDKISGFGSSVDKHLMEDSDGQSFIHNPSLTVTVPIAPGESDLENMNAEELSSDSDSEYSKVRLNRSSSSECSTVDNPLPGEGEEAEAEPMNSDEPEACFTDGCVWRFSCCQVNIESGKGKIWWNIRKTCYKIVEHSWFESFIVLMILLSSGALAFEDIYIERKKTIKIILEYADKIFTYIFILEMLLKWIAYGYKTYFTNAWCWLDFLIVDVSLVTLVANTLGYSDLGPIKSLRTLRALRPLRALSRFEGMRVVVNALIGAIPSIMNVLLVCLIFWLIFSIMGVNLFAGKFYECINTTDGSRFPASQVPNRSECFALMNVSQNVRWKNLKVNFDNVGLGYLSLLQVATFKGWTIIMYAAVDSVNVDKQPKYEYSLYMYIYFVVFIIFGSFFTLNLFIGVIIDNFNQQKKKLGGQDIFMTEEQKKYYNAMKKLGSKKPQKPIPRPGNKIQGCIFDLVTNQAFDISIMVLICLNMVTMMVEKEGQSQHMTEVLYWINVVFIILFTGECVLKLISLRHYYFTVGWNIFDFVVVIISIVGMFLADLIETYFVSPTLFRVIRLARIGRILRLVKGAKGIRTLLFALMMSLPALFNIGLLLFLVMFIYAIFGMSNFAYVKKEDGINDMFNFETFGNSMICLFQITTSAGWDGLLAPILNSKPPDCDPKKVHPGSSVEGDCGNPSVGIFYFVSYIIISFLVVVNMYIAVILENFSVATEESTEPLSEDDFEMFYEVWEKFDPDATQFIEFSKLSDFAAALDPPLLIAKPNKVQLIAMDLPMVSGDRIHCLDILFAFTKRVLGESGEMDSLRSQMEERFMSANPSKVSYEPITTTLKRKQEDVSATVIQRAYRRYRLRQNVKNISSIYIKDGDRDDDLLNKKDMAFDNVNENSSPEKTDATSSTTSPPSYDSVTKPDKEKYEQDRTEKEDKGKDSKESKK
Test: Whole-cell voltage clamp electrophysiology, automated patch clamp (marker c in Table of Examples)
Assay type: cell-based
Conditions: marker c = Automated patch clamp data; read-out: Nav 1.7 activity
pIC50: −log10 of the molar value.
Entry flag: yes if pIC50 reaches 6; no if it does not.

| Item Smiles | Label Value |
| --- | --- |
| CN(c1ccccc1)c1nc(N)nc(-c2noc([C@H]3[C@@H]4C(=O)N(Cc5ccccc5)C(=O)[C@@H]43)n2)n1 | no |
| CN(c1ccccc1)c1nc(N)nc(-c2noc(-c3ccc(OCCOCC(F)(F)F)nc3)n2)n1 | yes |
| CN(c1ccccc1)c1nc(N)nc(-c2noc(N3CC(OCC(F)(F)F)C3)n2)n1 | no |
| COC1CN(c2nc(-c3nc(N)nc(N(C)c4ccccc4)n3)no2)C1 | no |
| COc1ccccc1-c1nc(-c2nc(N)nc(Nc3ccccc3)n2)no1 | yes |
| CN(c1ccccc1)c1nc(N)nc(-c2noc(N3CC(Oc4ccccn4)C3)n2)n1 | no |
| CN(c1ccccc1)c1nc(N)nc(-c2noc(C(=O)NCc3ccc(OCC(F)(F)F)nc3)n2)n1 | yes |

Req: Decide: pIC50 of `CN(c1ccccc1)c1nc(N)nc(-c2noc(-c3ncccc3N3CCOCC3)n2)n1` >= 6?
Resp: yes

###

Quick list: pIC50 per entry.
Molecular target: Nav 1.7 (Homo sapiens, UniProt Q15858)
Construct: expressed in transfected cells
Assay: Whole-cell voltage clamp electrophysiology, automated patch clamp (marker c in Table of Examples)
Format: cell-based
Details: marker c = Automated patch clamp data; read-out: Nav 1.7 activity
Scale: pIC50 equals -log10([C]), with [C] in mol/L.

See these solved cases before continuing.
| Molecule | pIC50 |
| --- | --- |
| CN(c1ccccc1)c1nc(N)nc(-c2noc(-c3ccc(N4CCCCC4)nc3)n2)n1 | 6.51 |
| CN(c1ccccc1)c1nc(N)nc(-c2noc(C3CCN(C(=O)OC(C)(C)C)CC3)n2)n1 | 6.01 |
| CN(c1ccccc1)c1nc(N)nc(-c2noc(-c3ccc(NC4CCOC4)nc3)n2)n1 (centres unmarked) | 5.10 |
| NC(=O)c1nc(-c2nc(N)nc(Nc3cccc(F)c3)n2)no1 | 5.19 |
| Nc1nc(Nc2ccccc2)nc(-c2noc(N3CCC(COCC4CC4)CC3)n2)n1 | 6.63 |

Kindly review the next molecule as well.
Req: Please supply the value of reported pIC50 for the item CC(C)S(=O)(=O)N1CCC(c2nc(-c3nc(N)nc(N(C)c4ccccc4)n3)no2)C1 (centres unmarked)
Resp: 5.48

###

Molecular target: Nav1.5 (Homo sapiens)
Construct: expressed in transfected cells
Sequence (Q14524 whole entry): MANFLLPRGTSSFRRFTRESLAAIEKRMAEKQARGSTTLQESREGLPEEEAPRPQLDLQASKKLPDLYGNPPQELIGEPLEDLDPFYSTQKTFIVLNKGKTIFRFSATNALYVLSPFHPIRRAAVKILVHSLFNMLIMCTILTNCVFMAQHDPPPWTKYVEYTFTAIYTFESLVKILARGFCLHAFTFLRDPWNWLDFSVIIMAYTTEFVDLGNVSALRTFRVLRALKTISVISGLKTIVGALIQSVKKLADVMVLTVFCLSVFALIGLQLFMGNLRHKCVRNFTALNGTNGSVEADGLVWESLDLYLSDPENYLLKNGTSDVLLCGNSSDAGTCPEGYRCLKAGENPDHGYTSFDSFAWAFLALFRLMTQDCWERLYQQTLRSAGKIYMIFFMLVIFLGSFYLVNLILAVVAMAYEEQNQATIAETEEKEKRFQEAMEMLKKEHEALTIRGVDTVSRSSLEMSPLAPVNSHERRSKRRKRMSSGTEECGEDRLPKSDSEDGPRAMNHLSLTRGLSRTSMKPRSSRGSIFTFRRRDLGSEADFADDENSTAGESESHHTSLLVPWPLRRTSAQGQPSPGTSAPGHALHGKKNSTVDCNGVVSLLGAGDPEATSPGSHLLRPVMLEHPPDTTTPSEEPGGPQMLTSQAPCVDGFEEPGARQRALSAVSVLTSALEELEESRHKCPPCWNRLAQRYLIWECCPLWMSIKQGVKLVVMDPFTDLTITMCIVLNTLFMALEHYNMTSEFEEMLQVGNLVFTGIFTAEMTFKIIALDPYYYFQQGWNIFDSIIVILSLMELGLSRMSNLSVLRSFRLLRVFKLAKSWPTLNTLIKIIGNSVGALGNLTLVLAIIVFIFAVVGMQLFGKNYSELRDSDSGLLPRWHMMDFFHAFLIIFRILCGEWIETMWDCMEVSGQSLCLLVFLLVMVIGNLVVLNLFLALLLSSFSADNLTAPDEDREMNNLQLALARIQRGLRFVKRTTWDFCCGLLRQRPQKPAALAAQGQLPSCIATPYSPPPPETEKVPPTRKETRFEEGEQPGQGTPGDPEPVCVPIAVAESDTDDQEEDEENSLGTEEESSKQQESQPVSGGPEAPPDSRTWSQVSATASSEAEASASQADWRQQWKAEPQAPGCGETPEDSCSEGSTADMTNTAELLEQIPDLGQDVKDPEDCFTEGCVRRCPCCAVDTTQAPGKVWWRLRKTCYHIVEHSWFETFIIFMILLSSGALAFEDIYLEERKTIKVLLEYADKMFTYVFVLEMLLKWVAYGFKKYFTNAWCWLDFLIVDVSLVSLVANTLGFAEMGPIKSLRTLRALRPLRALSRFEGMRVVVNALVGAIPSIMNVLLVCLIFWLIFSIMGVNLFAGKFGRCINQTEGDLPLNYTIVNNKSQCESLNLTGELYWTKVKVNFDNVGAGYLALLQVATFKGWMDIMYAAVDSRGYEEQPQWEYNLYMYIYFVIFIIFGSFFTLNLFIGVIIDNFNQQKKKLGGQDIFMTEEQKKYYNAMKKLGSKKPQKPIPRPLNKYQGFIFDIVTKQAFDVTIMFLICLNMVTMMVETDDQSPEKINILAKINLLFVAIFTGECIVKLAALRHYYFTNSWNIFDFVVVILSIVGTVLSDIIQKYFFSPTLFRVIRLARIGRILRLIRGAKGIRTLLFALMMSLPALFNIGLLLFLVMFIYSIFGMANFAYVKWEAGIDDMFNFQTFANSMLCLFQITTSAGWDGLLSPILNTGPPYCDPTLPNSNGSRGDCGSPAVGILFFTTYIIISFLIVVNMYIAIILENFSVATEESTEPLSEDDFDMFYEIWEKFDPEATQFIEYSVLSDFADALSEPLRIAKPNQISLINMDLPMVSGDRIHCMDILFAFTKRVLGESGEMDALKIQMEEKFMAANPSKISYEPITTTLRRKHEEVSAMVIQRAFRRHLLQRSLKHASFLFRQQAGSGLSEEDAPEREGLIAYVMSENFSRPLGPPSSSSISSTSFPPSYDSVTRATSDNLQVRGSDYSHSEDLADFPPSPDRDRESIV
Assay: Inhibition of Nav1.5 as measured using manual patch clamp
Format: cell-based
Quick list: IC50 per entry.

See these solved cases before continuing.
| Item Smiles | Measurement Target | Observed Result |
| --- | --- | --- |
| CN(c1ccc(F)cc1)c1nc(N)nc(-c2noc(-c3ccco3)n2)n1 | Nav1.5 (Homo sapiens) | 1050 nM |
| CCN(c1ccccc1)c1nc(N)nc(-c2noc(-c3ccco3)n2)n1 | Nav1.5 (Homo sapiens) | 2060 nM |

Kindly review the next molecule as well.
Req: Using Nav1.5 (Homo sapiens) as the test system, report measured IC50 of `CCN(c1ccccc1)c1nc(N)nc(-c2noc(-c3ccccc3OC)n2)n1` .
Resp: 3700 nM

###

Biological target: Nav 1.7 (Homo sapiens, UniProt Q15858)
Construct: expressed in transfected cells
Test: Whole-cell voltage clamp electrophysiology, automated patch clamp (marker c in Table of Examples)
Type: cell-based
Settings: marker c = Automated patch clamp data; read-out: Nav 1.7 activity
Observable: pIC50
Scale: pIC50 equals -log10([C]), with [C] in mol/L.

| Molecule | Measurement Target | Observed Result |
| --- | --- | --- |
| CC(OCC(F)(F)F)c1ccc(-c2nc(-c3nc(N)nc(N(C)c4ccccc4)n3)no2)cn1 (stereo not drawn) | Nav 1.7 (Homo sapiens, UniProt Q15858) | 7.13 |
| Cc1cccc(N(C)c2nc(N)nc(-c3noc(-c4ccc(OCC(F)(F)F)nc4)n3)n2)c1 | Nav 1.7 (Homo sapiens, UniProt Q15858) | 7.09 |
| CN(c1ccccc1)c1nc(N)nc(-c2noc(-c3ccc(CS(=O)(=O)CC(F)(F)F)nc3)n2)n1 | Nav 1.7 (Homo sapiens, UniProt Q15858) | 6.83 |
| Nc1ccc(-c2nc(-c3nc(N)nc(Nc4cccc(F)c4)n3)no2)nc1 | Nav 1.7 (Homo sapiens, UniProt Q15858) | 5.04 |
| CN(c1ccccc1)c1nc(N)nc(-c2noc([C@H]3CCCN3C(=O)OC(C)(C)C)n2)n1 | Nav 1.7 (Homo sapiens, UniProt Q15858) | 6.05 |

Req: Please supply the value of reported pIC50 for the item `CN(c1ccccc1)c1nc(N)nc(-c2noc(C3CCCCC3)n2)n1`
Resp: 5.36

Req: Please supply the value of reported pIC50 for the item `Nc1nc(Nc2ccccc2)nc(-c2noc(N3CCCCC3)n2)n1`
Resp: 6.14

Req: Please supply the value of reported pIC50 for the item `CN(c1ccccc1)c1nc(N)nc(-c2noc(-c3ncc(F)cc3F)n2)n1`
Resp: 5.74

###

Quick list: IC50 per entry.
Biological target: Nav 1.7 (Homo sapiens)
Construct: expressed in transfected cells
Assay: Whole-cell voltage clamp electrophysiology, manual patch clamp (marker b in Table of Examples)
Type: cell-based
Conditions: marker b = Manual patch clamp data; read-out: Nav 1.7 activity
Response body: numeric value in µM, unit text excluded.

Req: Using Nav 1.7 (Homo sapiens) as the test system, report measured IC50 of `CN(c1ccccc1)c1nc(N)nc(-c2noc(-c3ncccn3)n2)n1` .
Resp: 1.06

Req: Using Nav 1.7 (Homo sapiens) as the test system, report measured IC50 of `Cc1cccc(-c2nc(-c3nc(N)nc(N(C)c4ccccc4)n3)no2)n1` .
Resp: 0.945

Req: Using Nav 1.7 (Homo sapiens) as the test system, report measured IC50 of `COc1cnc(-c2nc(-c3nc(N)nc(N(C)c4ccccc4)n3)no2)c(OC)c1` .
Resp: 0.308

###

Molecular target: Nav 1.7 (Homo sapiens, UniProt Q15858)
Construct: expressed in transfected cells
Assay: Whole-cell voltage clamp electrophysiology, manual patch clamp (marker b in Table of Examples)
Format: cell-based
Conditions: marker b: Manual patch clamp data; read-out: Nav 1.7 activity
Checkbox rule: IC50 lower than 0.2 µM = satisfied; IC50 not lower than 0.2 µM = not satisfied.

Example entries begin here.
| Item Smiles | Label Value |
| --- | --- |
| CCN(c1ccccc1)c1nc(N)nc(-c2noc(-c3ccco3)n2)n1 | not satisfied |
| CN(c1ccccc1)c1nc(N)nc(-c2noc(-c3ccccn3)n2)n1 | not satisfied |
| CN(c1ccccc1)c1nc(N)nc(-c2noc(-c3ccco3)n2)n1 | not satisfied |
| Nc1nc(Nc2cccc(F)c2F)nc(-c2noc(-c3ccco3)n2)n1 | satisfied |

Okay, now this compound:
Req: Is IC50 strictly under 0.2 µM for the entry `COc1ccc(-c2nc(-c3nc(N)nc(N(C)c4ccccc4)n3)no2)cc1` ?
Resp: satisfied

###

Biological target: Nav 1.7 (Homo sapiens, UniProt Q15858)
Construct: expressed in transfected cells
Assay: Whole-cell voltage clamp electrophysiology, automated patch clamp (marker c in Table of Examples)
Format: cell-based
Settings: marker c: Automated patch clamp data; read-out: Nav 1.7 activity
Observable: pIC50
Scale: pIC50 equals -log10([C]), with [C] in mol/L.

| Compound | pIC50 |
| --- | --- |
| CN(c1ccccc1)c1nc(N)nc(-c2noc(C3CCN(S(C)(=O)=O)CC3)n2)n1 [Example 160] | 5.56 |

Req: Please supply the value of reported pIC50 for the item COc1ccc(-c2nc(-c3nc(N)nc(N(C)c4ccccc4)n3)no2)cn1 [Example 47]
Resp: 5.72

Req: Please supply the value of reported pIC50 for the item CN(c1ccccc1)c1nc(N)nc(-c2noc(-c3cccc(OCC(F)(F)F)n3)n2)n1 [Example 155]
Resp: 5.34

Req: Please supply the value of reported pIC50 for the item CC(C)S(=O)(=O)N1CCC(c2nc(-c3nc(N)nc(N(C)c4ccccc4)n3)no2)CC1 [Example 171]
Resp: 6.60

Req: Please supply the value of reported pIC50 for the item CN(C)CCN(c1ccccc1)c1nc(N)nc(-c2noc(-c3ccco3)n2)n1 [Example 69]
Resp: 5.86

###

Target: Nav 1.7 (Homo sapiens)
Construct: expressed in transfected cells
Test: Whole-cell voltage clamp electrophysiology, automated patch clamp (marker c in Table of Examples)
Format: cell-based
Settings: marker c = Automated patch clamp data; read-out: Nav 1.7 activity
Observable: IC50

| Compound | IC50 |
| --- | --- |
| CN(c1ccccc1)c1nc(N)nc(-c2noc(N3C[C@@H]4[C@@H](COCCC(F)(F)F)[C@@H]4C3)n2)n1 [Example 396] | 1.13 µM |
| CN(c1ccccc1)c1nc(N)nc(-c2noc(-c3ccc(OCC(F)F)nc3)n2)n1 [Example 372] | 0.155 µM |

Kindly review the next compound as well.
Req: Please supply the value of reported IC50 for the item CN(c1ccccc1)c1nc(N)nc(-c2noc(-c3ccc(SCC(F)(F)F)nc3)n2)n1 [Example 318]
Resp: 1.89 µM
